- Assay Target: D2 receptor (Homo sapiens)
- Sequence (P14416 whole entry): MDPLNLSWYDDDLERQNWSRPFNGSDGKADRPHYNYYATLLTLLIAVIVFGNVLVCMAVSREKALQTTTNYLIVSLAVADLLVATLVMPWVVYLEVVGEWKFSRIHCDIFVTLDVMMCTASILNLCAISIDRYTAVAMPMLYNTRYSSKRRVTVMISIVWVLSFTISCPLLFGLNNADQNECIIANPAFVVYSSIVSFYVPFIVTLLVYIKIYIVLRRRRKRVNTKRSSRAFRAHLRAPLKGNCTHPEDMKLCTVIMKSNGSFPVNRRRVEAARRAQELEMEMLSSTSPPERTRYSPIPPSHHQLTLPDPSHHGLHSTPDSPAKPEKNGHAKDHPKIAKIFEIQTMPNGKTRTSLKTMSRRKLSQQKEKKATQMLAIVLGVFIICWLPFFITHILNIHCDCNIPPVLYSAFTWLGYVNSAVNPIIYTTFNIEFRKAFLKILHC
- Assay Details: calcium flux assay
- Reported Conditions: read-out: EC50, agonist effect (calcium flux); D2/CHO-K1 cells, agonist mode
Experimental Readout: EC50

                                   compound   result
0  COc1ccc2c(c1O)CN1CCc3cc4c(cc3C1C2)OCO4 (stereo not drawn) [l-TU, Tetrahydroberberrubine]  > 10 µM

The record that follows has no EC50 shown yet.
INPUT: Given COc1ccc2c(c1O)CN1CCc3cc4c(cc3C1C2)OCO4 (stereo not drawn) [d-TU, Tetrahydroberberrubine] , state its recorded EC50.
OUTPUT: > 10 µM

====

- Assay Target: D1 receptor (Homo sapiens, UniProt P21728)
- Sequence (P21728 whole entry): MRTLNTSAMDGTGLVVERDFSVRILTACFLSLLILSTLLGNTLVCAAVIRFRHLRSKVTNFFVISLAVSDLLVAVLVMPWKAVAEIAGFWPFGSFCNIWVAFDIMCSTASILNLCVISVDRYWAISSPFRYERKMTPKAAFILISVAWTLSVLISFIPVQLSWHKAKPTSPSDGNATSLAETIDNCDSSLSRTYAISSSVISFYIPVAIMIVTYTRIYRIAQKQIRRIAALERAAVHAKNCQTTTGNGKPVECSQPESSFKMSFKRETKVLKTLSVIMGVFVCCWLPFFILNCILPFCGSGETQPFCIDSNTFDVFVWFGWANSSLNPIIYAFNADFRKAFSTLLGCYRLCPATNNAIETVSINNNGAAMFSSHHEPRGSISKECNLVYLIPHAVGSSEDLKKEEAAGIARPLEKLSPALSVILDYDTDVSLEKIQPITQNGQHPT
- Assay Details: cAMP assay
- Reported Conditions: read-out: EC50, agonist effect (cAMP production); CHO-K1/D1 cells, agonist mode
Measured EC50 accompanies every entry in the list below.

>>> df
                                   molecule                              assay_target   result
0  COc1ccc2c(c1O)CN1CCc3cc4c(cc3C1C2)OCO4 (stereo not drawn) [l-TU, Tetrahydroberberrubine]  D1 receptor (Homo sapiens, UniProt P21728)  > 10 µM

The record that follows has no EC50 shown yet.
INPUT: Query for D1 receptor (Homo sapiens, UniProt P21728): what EC50 does the record show for COc1ccc2c(c1O)CN1CCc3cc4c(cc3C1C2)OCO4 (stereo not drawn) [d-TU, Tetrahydroberberrubine] ?
OUTPUT: > 10 µM
